# Test system: 454973-116-R2-J3-PDC complex spheroid viability;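 note: spheroids exposed to drugs for seven days before measurement; percent viability relative to DMSO vehicle control wells taken as 100%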
# Test Method Notes: Anticancer human tumor 454973-116-R2-J3-PDC patient-derived pancreatic carcinoma cell line growth inhibition [POLQ]
# Condition Label: second compound 1 µM; first compound 0.316 µM; hits give low values
Reported viability, T/C by item:
Write the answer as a number in %, unit excluded.

// known answers, use as guide
input: What does the record list as viability, T/C for CC1COCCN1c1cc(C2(O)CC3CCC(C2)O3)c2cnn(-c3ccn[nH]3)c2n1 (stereo not given) + Nc1ccc(C#CCN(C(=O)Cc2ncc(C(F)(F)F)cc2C(F)(F)F)c2ccc(F)cc2)nn1 ?
output: 15.4

input: COc1cc(C2c3cc4c(cc3C(OC3OC5COC(C)OC5C(O)C3O)C3COC(=O)C23)OCO4)cc(OC)c1O (stereo not given) + Cc1cccc(N(C)C(=O)C2C(O)CCN2c2nc(C)cc(C(F)(F)F)c2C#N)c1 ?
output: 88.3

input: CC(C)n1c(=O)n(C)c2cnc3cc(F)c(-c4ccc(OCCCN5CCCCC5)nc4)cc3c21 + COC1C(OC(N)=O)C(O)C(Oc2ccc3c(O)c(NC(=O)c4ccc(O)c(CC=C(C)C)c4)c(=O)oc3c2C)OC1(C)C ?
output: 115

input: C=CCn1c(=O)c2cnc(Nc3ccc(N4CCN(C)CC4)cc3)nc2n1-c1cccc(C(C)(C)O)n1 + Cc1cccc(N(C)C(=O)C2C(O)CCN2c2nc(C)cc(C(F)(F)F)c2C#N)c1 ?
output: 74.1

Note: attention shifts to another entry.
input: What does the record list as viability, T/C for COc1cccc2c1C(=O)c1c(O)c3c(c(O)c1C2=O)CC(O)(C(=O)CO)CC3OC1CC(N)C(O)C(C)O1 (stereo not given) + COC1C(OC(N)=O)C(O)C(Oc2ccc3c(O)c(NC(=O)c4ccc(O)c(CC=C(C)C)c4)c(=O)oc3c2C)OC1(C)C ?
output: 23.6
